# ASSAY EXPLANATION: Concentration in autopsy samples of cerebral cortex of deceased patients, HPLC-UV
# Format: in vivo, human
# CONDITION CONTEXT: human, cerebral cortex, 4000 mg; patient 16, cumulative dose 4,000 mg, treatment 39 days, 235 h between last administration and death, 29 h between death and sampling, LLOQ 0.10 μg/g; read-out: Concn in cerebral cortex (autopsy)
# Procedure: The cerebral cortex of deceased patients who had received anidulafungin or micafungin within their last 30 days of life was sampled during autopsy, which is routinely performed for quality assurance in Austrian hospitals. […] Both echinocandins were quantified by HPLC-UV at 306 nm ([5]). The lower limit of quantification was 0.05 μg/g for anidulafungin and 0.10 μg/g for micafungin. […]
Starred links: 1 amine or outer side, 2 acyl side, 3 side chain; linkers in the order of their positions; H or OH if unused. Positions of bridges follow the written chain, without caps; N, C: chain ends. Non-standard residues stand in square brackets, D forms with d. Residues, ends and D or L forms follow the SMILES beside them. *: point of attachment. hTyr(3S-OH,4S-OH,3'-OSO3H) = N[C@H](C(=O)O)[C@H](O)[C@@H](O)c1ccc(O)c(OS(=O)(=O)O)c1; Orn(4R-OH,5R-OH) = O=C([C@H](C[C@@H](O)[C@@H](O)N[*:3])N[*:1])[*:2]; Pro(3S-OH,4S-Me) = C[C@H]1CN[C@H](C(=O)O)[C@H]1O; X1 = CCCCCOc1ccc(-c2cc(-c3ccc(C(=O)*)cc3)no2)cc1; Gln(3R-OH) = NC(=O)C[C@@H](O)[C@H](N)C(=O)O; Hyp = O=C(O)[C@@H]1C[C@@H](O)CN1
VALUE TYPE: tissue level at time at 235 h (ng/g)
Reply with just the number (in ng/g).

Request: Tell me the measured tissue level at time at 235 h of CCCCCOc1ccc(-c2cc(-c3ccc(C(=O)N[C@H]4C[C@@H](O)[C@@H](O)NC(=O)[C@@H]5[C@@H](O)[C@@H](C)CN5C(=O)[C@H]([C@H](O)CC(N)=O)NC(=O)[C@H]([C@H](O)[C@@H](O)c5ccc(O)c(OS(=O)(=O)O)c5)NC(=O)[C@@H]5C[C@@H](O)CN5C(=O)[C@H]([C@@H](C)O)NC4=O)cc3)no2)cc1 [micafungin] (X1-[Orn(4R-OH,5R-OH)]T[Hyp][hTyr(3S-OH,4S-OH,3'-OSO3H)][Gln(3R-OH)][Pro(3S-OH,4S-Me)]; lactam 1-C) , please.
Result: 190
